system: HL-60; experiment: cell viability (% survival relative to DMSO control, bortezomib = 0%); higher = less cytotoxic; settings: 10 nM; 72 h
The compounds listed here are annotated with their cell viability.
Property name: cell viability

Compound: O=[As]O[As]=O (stereo not given) [Arsenic trioxide]
Result: 105%
--
Compound: O=C(C(=O)c1ccc(Br)cc1)c1ccc(Br)cc1 [4,4'-Dibromobenzil]
Result: 99.6%
--
Compound: Cl.OC[C@H]1NC[C@H](O)[C@@H](O)[C@H]1O [Migalastat]
Result: 86.1%
--
Compound: O=C(c1c2ccccc2cc2ccccc12)N1CCC(N2CCC[C@@H](C(=O)N3CCOCC3)C2)CC1
Result: 69.9%
--
Compound: NCc1ccc(S(N)(=O)=O)cc1 [4-Homosulfanilamide]
Result: 97%
--
Compound: COc1cc(C2Oc3cc(C4Oc5cc(O)cc(O)c5C(=O)C4O)ccc3OC2CO)ccc1O (stereo not given) [Silibinin]
Result: 92.9%
--
Compound: OCCN(CCO)c1nc(N2CCCCC2)c2nc(N(CCO)CCO)nc(N3CCCCC3)c2n1 [Dipyridamole]
Result: 65.2%
--
Compound: CC1Cc2ccccc2N1NC(=O)c1ccc(Cl)c(S(N)(=O)=O)c1 (stereo not given) [Indapamide]
Result: 95%
--
Compound: CC(=O)N1CCN(c2ccc(OC[C@@H]3CO[C@@](Cn4ccnc4)(c4ccc(Cl)cc4Cl)O3)cc2)CC1 (racemic) [Ketoconazole]
Result: 109%
--
Compound: CN(C)C(=N)NC(=N)N [Metformin]
Result: 93.8%
--
Compound: CCCCCCCCCCCCCCOc1ccc(C(=O)O)o1 [TOFA]
Result: 83.8%
--
Compound: CCC(CC#N)OC(=O)N[C@@H](C)c1cccc(NC(=O)Nc2ccc(-c3cnco3)c(OC)c2)c1 (stereo in doubt) [AVN-944]
Result: 85.7%
--
Compound: CC(=O)N[C@@H](CS)C(=O)O [Acetylcysteine]
Result: 93.1%
--
Compound: Cl.NC1=CCCN1Cc1nc(O)nc(O)c1Cl [Tipiracil]
Result: 97.2%
--
Compound: CCCCC/C=C\C/C=C\C/C=C\C/C=C\CCCC(=O)C(F)(F)F [Arachidonyl trifluoromethyl ketone]
Result: 100%
--
Compound: Nc1nc(O)c2c(CCc3ccc(C(=O)N[C@@H](CCC(=O)O)C(=O)O)cc3)c[nH]c2n1 [Pemetrexed]
Result: 99.6%
--
Compound: CN1CC(=O)N2[C@H](c3ccc4c(c3)OCO4)c3[nH]c4ccccc4c3C[C@@H]2C1=O [Tadalafil]
Result: 75.2%
--
Compound: OCC(CO)N[C@H]1C[C@](O)(CO)[C@@H](O)[C@H](O)[C@H]1O [Voglibose]
Result: 99.5%
--
Compound: N=C(N)c1ccc(N=NNc2ccc(C(=N)N)cc2)cc1 [Diminazene]
Result: 102%
--
Compound: c1ccc2c(c1)SCc1c-2[nH]c2ccccc12
Result: 95.7%

----------
# cell viability per record follows
test system: HEL; test: cell viability (% survival relative to DMSO control, bortezomib = 0%); higher = less cytotoxic; conditions: 1000 nM; 72 h
Property name: cell viability (%)

Molecule: O=C(Oc1cccc(F)c1OC(=O)c1cccc(O)c1)c1cccc(O)c1
Unit of measure: %
Result: 99.8

Molecule: OCCN1C[C@H](O)[C@@H](O)[C@H](O)[C@H]1CO
Unit of measure: %
Result: 96.7

Molecule: O=C1N[C@@H]2[C@@H](O)[C@@H](O)[C@H](O)[C@@H](CO)N2C1=O
Unit of measure: %
Result: 87.8

Molecule: NC(CCC(=O)NC(CSCc1ccc(Br)cc1)C(=O)NCC(=O)OC1CCCC1)C(=O)OC1CCCC1 (stereo not given)
Unit of measure: %
Result: 102

Molecule: OCCN(CCO)c1nc(N2CCCCC2)c2nc(N(CCO)CCO)nc(N3CCCCC3)c2n1
Unit of measure: %
Result: 105

Molecule: CCC(CC#N)OC(=O)N[C@@H](C)c1cccc(NC(=O)Nc2ccc(-c3cnco3)c(OC)c2)c1 (stereo in doubt)
Unit of measure: %
Result: 4.65

Molecule: CN(C)C(=N)NC(=N)N
Unit of measure: %
Result: 102

Molecule: Oc1ncc(F)c(O)n1
Unit of measure: %
Result: 73.8

Molecule: c1ccc2nc(-c3nnc4sc(-c5cnccn5)nn34)ccc2c1
Unit of measure: %
Result: 95.1

Molecule: Cc1nnc(-c2ccc(N3CCC(Oc4ccccc4C(F)(F)F)CC3)nn2)s1
Unit of measure: %
Result: 122

Molecule: Cc1cc(O)c2c(c1)C(=O)c1cc(O)cc(O)c1C2=O
Unit of measure: %
Result: 89.8

Molecule: N=C(N)c1ccc(N=NNc2ccc(C(=N)N)cc2)cc1
Unit of measure: %
Result: 93.8

Molecule: CC(=O)N[C@@H](CS)C(=O)O
Unit of measure: %
Result: 113

Molecule: CC(C)(F)C[C@H](N[C@@H](c1ccc(-c2ccc(S(C)(=O)=O)cc2)cc1)C(F)(F)F)C(=O)NC1(C#N)CC1
Unit of measure: %
Result: 92.7

Molecule: O=[As]O[As]=O (stereo not given) [Arsenic trioxide]
Unit of measure: %
Result: 96.8

----------
system: HL-60; assay: cell viability (% survival relative to DMSO control); higher = less cytotoxic; conditions: 0.1 µM; 72 h; co-treatment: AZD3965 100 nM
A collection of compounds and their measured cell viability
Property name: cell viability (%)

Compound: CCCCCCCNC=O [N-Heptyl-Formamide]
Measured on: HL-60
Result: 98
--
Compound: N=C(N)c1ccc(N=NNc2ccc(C(=N)N)cc2)cc1
Measured on: HL-60
Result: 106
--
Compound: Cc1cc(O)c2c(c1)C(=O)c1cc(O)cc(O)c1C2=O
Measured on: HL-60
Result: 101
--
Compound: COc1cc(C2Oc3cc(C4Oc5cc(O)cc(O)c5C(=O)C4O)ccc3OC2CO)ccc1O (stereo unspecified)
Measured on: HL-60
Result: 107
--
Compound: CC(C)(F)C[C@H](N[C@@H](c1ccc(-c2ccc(S(C)(=O)=O)cc2)cc1)C(F)(F)F)C(=O)NC1(C#N)CC1
Measured on: HL-60
Result: 102
--
Compound: CN(C)C(=O)n1nnnc1Cc1ccc(-c2ccccc2)cc1
Measured on: HL-60
Result: 103
--
Compound: Cc1[nH]n(-c2ccccc2)c(=O)c1C1(C(F)(F)F)C(=O)N(c2ccccc2)C2=C1C(=O)CC(C)(C)C2 (stereo unspecified)
Measured on: HL-60
Result: 107
--
Compound: COc1ccc2c(c1)c(CC(=O)O)c(C)n2C(=O)c1ccc(Cl)cc1
Measured on: HL-60
Result: 100
--
Compound: O=c1[nH]c(=O)n([C@H]2C[C@H](O)[C@@H](CO)O2)cc1I
Measured on: HL-60
Result: 98.5
--
Compound: C=C1NC(=O)c2cc(CN(C)c3ccc(C(=O)N[C@@H](CCC(=O)O)C(=O)O)s3)ccc2N1
Measured on: HL-60
Result: 76.3
--
Compound: O=C(/C=C/c1cccnc1)NCCCCC1CCN(C(=O)c2ccccc2)CC1
Measured on: HL-60
Result: 1.54

----------
tested on: myeloid leukemia patient primary cells Pat.5; assay: cell viability (% survival relative to DMSO control); higher = less cytotoxic; details: 1000 nM; 72 h
Counter-ions that a name gives are not always drawn.
Property name: cell viability (%)

Compound: Cc1nnc(-c2ccc(N3CCC(Oc4ccccc4C(F)(F)F)CC3)nn2)s1
Property name: cell viability
Result qualifier: =
Result: 46.4
//
Compound: NS(=O)(=O)c1ccc(S(=O)(=O)Nc2cccc3c(Cl)c[nH]c23)cc1
Property name: cell viability
Result qualifier: =
Result: 17.9
//
Compound: Nc1ccn([C@@H]2O[C@H](CO)[C@@H](O)C2(F)F)c(=O)n1
Property name: cell viability
Result qualifier: =
Result: 27.6
//
Compound: CC(C)(Cc1ccccc1)NCC(O)c1ccc(O)c(NS(C)(=O)=O)c1 (stereo unspecified) [Zinterol hydrochloride]
Property name: cell viability
Result qualifier: =
Result: 99.9
//
Compound: Clc1cc(Cl)c(OCC#CI)cc1Cl
Property name: cell viability
Result qualifier: <
Result: 0
//
Compound: CC(C)c1onc(-c2c(Cl)cccc2Cl)c1COc1ccc(/C=C/c2cccc(C(=O)O)c2)c(Cl)c1
Property name: cell viability
Result qualifier: =
Result: 2.27

----------
test system: BV-173; test: cell viability (% survival relative to DMSO control, bortezomib = 0%); higher = less cytotoxic; details: 1 nM; 72 h

Molecule: CCCCC/C=C\C/C=C\C/C=C\C/C=C\CCCC(=O)C(F)(F)F
cell viability [%]: 103
--
Molecule: CN(C)C(=O)n1nnnc1Cc1ccc(-c2ccccc2)cc1
cell viability [%]: 96.6
--
Molecule: CN1CC(=O)N2[C@H](c3ccc4c(c3)OCO4)c3[nH]c4ccccc4c3C[C@@H]2C1=O
cell viability [%]: 95.5
--
Molecule: COc1ccc2c(c1)c(CC(=O)O)c(C)n2C(=O)c1ccc(Cl)cc1
cell viability [%]: 89.5
--
Molecule: O=c1oc2c(cc1O)oc(=O)c1cc(O)c(O)c(O)c12
cell viability [%]: 91
--
Molecule: N#Cc1ccc(C2CCCc3cncn32)cc1 (centres undefined)
cell viability [%]: 103
--
Molecule: CC(C)(O)CNc1nc(Nc2ccnc(C(F)(F)F)c2)nc(-c2cccc(C(F)(F)F)n2)n1
cell viability [%]: 101
--
Molecule: Cn1c2cc(S(C)=O)sc2c2cnn(Cc3cccc(N)c3)c(=O)c21 (centres undefined)
cell viability [%]: 108
--
Molecule: C=C1C(=O)O[C@H](CCCCCCCC)[C@H]1C(=O)O
cell viability [%]: 106
